- TARGET_OF_ASSAY: human Kallikrein-2 6-His protein (soluble hK2) (human) (UniProt P20151)
- ASSAY_COMMENT: SPR, antibody captured by anti-Fc, soluble hK2 injected
ASSAY_READOUT: pKd
FYI, pKd means -log10 of a concentration in mol per litre.

Challenge: Given KL2B413 (scFv-LH-Fc) (Fc fusion, not shown: a dimerising Fc or GST) scFv: EIVLTQSPSFLSASVGDRVTITCRASQGISSYLSWYQQKPGKAPKLLIYATSTLQSGVPSRFSGSGSGTEFTLTISSLQPEDFATYYCQQLNSYPRTFGQGTKVEIKGGSEGKSSGSGSESKSTGGSEVQLVESGGGLVQPGGSLRLSCAASGFTFSSYWMTWVRQAPGKGLEWVANIKQDGSERYYVDSVKGRFTISRDNAKNSLYLQMNSLRAEDTAVYYCARDQNYDILTGHYGMDVWGQGTTVTVSS , state its recorded pKd.
Response given: 7.46
